Hello, the source for this data is paper PMC6753678, in case you need it.

- Test system: P. falciparum late stage (stages IV-V) gametocytes
- ASSAY PROTOCOL: P. falciparum late stage gametocyte ATP depletion assay (Pf GC-ATP)
- DETAILS: 1: YES; 0: NO; >10-fold selectivity over cytotoxicity
For each record, write down the corresponding Is compound selective in assay? Pf GC-ATP active?.

Inquiry: Fill blank: measured Is compound selective in assay? Pf GC-ATP active? of the molecule O=C(Nc1ccc(F)c(C(F)(F)F)c1)NC1CCN(CCCCCNC(=O)C2CC2c2ccc(Cl)c(Cl)c2)CC1 (stereo not shown) is ____.
Reply text: 0 (0: NO)

Inquiry: And what about the molecule CN(C)CCCn1c(N)c(-c2nc3ccccc3[nH]2)c2nc(C#N)c(C#N)nc21 ?
Reply text: 1 (1: YES)

Inquiry: Request: CCOc1ccc2ccccc2c1CNCCCCCCNCc1c(OCC)ccc2ccccc12.CS(=O)(=O)O
Reply text: 0 (0: NO)

Inquiry: Try Cc1cccc2nc(-c3ccc(-c4cccc(CNCCN5CCNCC5)c4)cc3)[nH]c12 next.
Reply text: 1 (1: YES)
